*1 amine or outer side, *2 acyl side, *3 side chain or, on linkers, in order; H or OH if unused. Where a SMILES comes first, the peptide text is derived from it. Bridges are numbered along the chain shown (N, C = ends). [ ]: non-standard residue; d: D form. The star is where a group is joined. ξ: configuration not given here. Phe(3,5-F2) = N[C@@H](Cc1cc(F)cc(F)c1)C(=O)O; ξPro(4S-Me) = C[C@@H]1CNC(C(=O)O)C1; ξPro(4R-Me) = C[C@H]1CNC(C(=O)O)C1; NH(4-Me-phenyl) = Cc1ccc(N*)cc1; aThr = C[C@H](O)[C@H](N)C(=O)O; X5 = O=C(C1COCCN1[*:1])[*:2]; CO = O=C([*:1])[*:2]; ξP = O=C(O)C1CCCN1
observationType: MIC (µM)
Reply with just the number (in µM).

-- ask What MIC appears in the records for this molecule with Streptococcus pneumoniae, R6? Cc1ccc(NC(=O)N[C@@H](Cc2cc(F)cc(F)c2)C(=O)N[C@@H]2C(=O)N3CCCC3C(=O)N3CCOCC3C(=O)N[C@@H](C)C(=O)N3C[C@H](C)CC3C(=O)O[C@H]2C)cc1 (stereo partly drawn) [Compound 47] ({NH(4-Me-phenyl)-CO}-[Phe(3,5-F2)][aThr][ξP][X5]A[ξPro(4R-Me)]; ester 2-C)
-- reply 0.002

-- ask Item: Cc1ccc(NC(=O)N[C@@H](Cc2cc(F)cc(F)c2)C(=O)N[C@@H]2C(=O)N3CCCC3C(=O)N3CCOCC3C(=O)N[C@@H](C)C(=O)N3C[C@@H](C)CC3C(=O)O[C@H]2C)cc1 (stereo partly drawn) [Compound 33] ({NH(4-Me-phenyl)-CO}-[Phe(3,5-F2)][aThr][ξP][X5]A[ξPro(4S-Me)]; ester 2-C) Test system: Streptococcus pneumoniae, R6 Read-out: MIC Value: ?
-- reply 0.098

###

For each record, write down the corresponding MIC.
# Test system: Staphylococcus aureus, USA 300
*1 amine or outer side, *2 acyl side, *3 side chain or, on linkers, in order; H or OH if unused. Where a SMILES comes first, the peptide text is derived from it. Bridges are numbered along the chain shown (N, C = ends). [ ]: non-standard residue; d: D form. The star is where a group is joined. NH(1,3-benzodioxol-5-yl) = c1cc2c(cc1N*)OCO2; Phe(3,5-F2) = N[C@@H](Cc1cc(F)cc(F)c1)C(=O)O; NH(1-Me-indolin-5-yl) = CN1CCc2cc(N*)ccc21; Morpholine(3S-CO) = O=C(O)[C@@H]1COCCN1; Pro(4R-Me) = C[C@H]1CN[C@H](C(=O)O)C1; Hyp = O=C(O)[C@@H]1C[C@@H](O)CN1; NH(4-Me-phenyl) = Cc1ccc(N*)cc1; aThr = C[C@H](O)[C@H](N)C(=O)O; Pip = O=C(O)[C@@H]1CCCCN1; CO = O=C([*:1])[*:2]
Please reply with the bare figure in µM and do not write the unit itself.

-- ask GET /values?readout=MIC&item= Cc1ccc(NC(=O)N[C@@H](Cc2cc(F)cc(F)c2)C(=O)N[C@@H]2C(=O)N3C[C@H](O)C[C@H]3C(=O)N3CCCC[C@H]3C(=O)N[C@@H](C)C(=O)N3C[C@H](C)C[C@H]3C(=O)O[C@H]2C)cc1 [Compound 216] ({NH(4-Me-phenyl)-CO}-[Phe(3,5-F2)][aThr][Hyp][Pip]A[Pro(4R-Me)]; ester 2-C)
-- reply 0.1

-- ask Value lookup for MIC; key = C[C@@H]1C[C@H]2C(=O)O[C@@H](C)[C@H](NC(=O)[C@H](Cc3cc(F)cc(F)c3)NC(=O)Nc3ccc4c(c3)OCO4)C(=O)N3C[C@H](O)C[C@H]3C(=O)N3CCOC[C@H]3C(=O)N[C@@H](C)C(=O)N2C1 [Compound 319] ({NH(1,3-benzodioxol-5-yl)-CO}-[Phe(3,5-F2)][aThr][Hyp][Morpholine(3S-CO)]A[Pro(4R-Me)]; ester 2-C)
-- reply 25

-- ask I would be grateful if you could share the reported MIC for C[C@@H]1C[C@H]2C(=O)O[C@@H](C)[C@H](NC(=O)[C@H](Cc3cc(F)cc(F)c3)NC(=O)Nc3ccc4c(c3)CCN4C)C(=O)N3C[C@H](O)C[C@H]3C(=O)N3CCOC[C@H]3C(=O)N[C@@H](C)C(=O)N2C1 [Compound 315] ({NH(1-Me-indolin-5-yl)-CO}-[Phe(3,5-F2)][aThr][Hyp][Morpholine(3S-CO)]A[Pro(4R-Me)]; ester 2-C) .
-- reply 10

###

*1 amine or outer side, *2 acyl side, *3 side chain or, on linkers, in order; H or OH if unused. Where a SMILES comes first, the peptide text is derived from it. Bridges are numbered along the chain shown (N, C = ends). [ ]: non-standard residue; d: D form. The star is where a group is joined. ξ: configuration not given here. Phe(3,5-F2) = N[C@@H](Cc1cc(F)cc(F)c1)C(=O)O; NH(4-OCF3-phenyl) = FC(F)(F)Oc1ccc(N*)cc1; Morpholine(3S-CO) = O=C(O)[C@@H]1COCCN1; Pro(4S-Me) = C[C@@H]1CN[C@H](C(=O)O)C1; Pro(4R-Me) = C[C@H]1CN[C@H](C(=O)O)C1; X11 = O=C(C1C[C@@H](F)CN1[*:1])[*:2]; NMeaThr = CN[C@H](C(=O)O)[C@H](C)O; NH(4-Me-phenyl) = Cc1ccc(N*)cc1; aThr = C[C@H](O)[C@H](N)C(=O)O; ξPip = O=C(O)C1CCCCN1; CO = O=C([*:1])[*:2]; ξP = O=C(O)C1CCCN1
observationType: MIC (µM)
Just the number please, in µM, no unit attached.

-- ask For Streptococcus pneumoniae, R6, provide MIC of Cc1ccc(NC(=O)N[C@@H](Cc2cc(F)cc(F)c2)C(=O)N[C@H]2COC(=O)[C@@H]3C[C@@H](C)CN3C(=O)[C@H](C)NC(=O)C3CCCCN3C(=O)[C@@H]3C[C@@H](O)CN3C2=O)cc1 (stereo partly shown) [Compound 323] please.
-- reply 0.078

-- ask Give MIC (Streptococcus pneumoniae, R6) of the following compound: Cc1ccc(NC(=O)N[C@@H](Cc2cc(F)cc(F)c2)C(=O)N[C@H]2COC(=O)C3C[C@@H](F)CN3C(=O)[C@H](C)NC(=O)C3CCCCN3C(=O)C3CCCN3C2=O)cc1 (stereo partly shown) [Compound 51] ({NH(4-Me-phenyl)-CO}-[Phe(3,5-F2)]S[ξP][ξPip]A[X11]; ester 2-C)
-- reply 6.3

-- ask Fill in the recorded MIC for this compound, with Streptococcus pneumoniae, R6 as test system: C[C@@H]1C[C@H]2C(=O)OC[C@H](NC(=O)[C@H](Cc3cc(F)cc(F)c3)NC(=O)Nc3ccc4c(c3)OCO4)C(=O)N3C[C@H](O)C[C@H]3C(=O)N3CCCCC3C(=O)N[C@@H](C)C(=O)N2C1 (stereo partly shown) [Compound 325]
-- reply 0.078

-- ask // map C[C@H]1C[C@H]2C(=O)O[C@@H](C)[C@H](NC(=O)[C@H](Cc3cc(F)cc(F)c3)NC(=O)Nc3ccc(OC(F)(F)F)cc3)C(=O)N3CCC[C@H]3C(=O)N(C)[C@@H]([C@H](C)O)C(=O)N[C@@H](C)C(=O)N2C1 [Compound 203] ({NH(4-OCF3-phenyl)-CO}-[Phe(3,5-F2)][aThr]P[NMeaThr]A[Pro(4S-Me)]; ester 2-C) to recorded MIC (system: Streptococcus pneumoniae, R6)
-- reply 0.024

-- ask Enter reported MIC observed with Streptococcus pneumoniae, R6 for Cc1ccc(NC(=O)N[C@@H](Cc2cc(F)cc(F)c2)C(=O)N[C@@H]2C(=O)N3CCC[C@H]3C(=O)N3CCOC[C@H]3C(=O)N[C@@H](C)C(=O)N3C[C@H](C)C[C@H]3C(=O)O[C@H]2C)cc1 [Compound 210] ({NH(4-Me-phenyl)-CO}-[Phe(3,5-F2)][aThr]P[Morpholine(3S-CO)]A[Pro(4R-Me)]; ester 2-C)
-- reply 0.002

###

# tgt: Sa-ClpP (Staphylococcus aureus)
# Construct: made in house; host or cells: E. coli BL21(DE3)
# Sequence (Q2G036 whole entry): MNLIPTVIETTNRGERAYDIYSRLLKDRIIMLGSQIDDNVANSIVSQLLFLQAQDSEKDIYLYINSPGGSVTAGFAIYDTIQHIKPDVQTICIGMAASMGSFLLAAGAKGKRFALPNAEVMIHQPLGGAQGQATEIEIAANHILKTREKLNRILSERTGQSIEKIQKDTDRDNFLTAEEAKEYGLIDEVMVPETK
# method: ADEP displacement fluorescence polarization assay (FP probe ADEP 2591)
# Assay type: binding
*1 amine or outer side, *2 acyl side, *3 side chain or, on linkers, in order; H or OH if unused. Where a SMILES comes first, the peptide text is derived from it. Bridges are numbered along the chain shown (N, C = ends). [ ]: non-standard residue; d: D form. The star is where a group is joined. Phe(3,5-F2) = N[C@@H](Cc1cc(F)cc(F)c1)C(=O)O; Pro(4S-Me) = C[C@@H]1CN[C@H](C(=O)O)C1; NH(4-Cl-2-F-phenyl) = Fc1cc(Cl)ccc1N*; Pro(4R-Me) = C[C@H]1CN[C@H](C(=O)O)C1; Hyp = O=C(O)[C@@H]1C[C@@H](O)CN1; NH(4-Et-phenyl) = CCc1ccc(N*)cc1; NMeT = CN[C@H](C(=O)O)[C@@H](C)O; NH(4-Me-phenyl) = Cc1ccc(N*)cc1; aThr = C[C@H](O)[C@H](N)C(=O)O; Pip = O=C(O)[C@@H]1CCCCN1; CO = O=C([*:1])[*:2]
Give measured pIC50 for each item. Keep answers brief.
Entry type: numeric. Quantity: pIC50, the -log10 of concentration in molar units.

-- ask Form: Entry = CCc1ccc(NC(=O)N[C@@H](Cc2cc(F)cc(F)c2)C(=O)N[C@@H]2C(=O)N3CCC[C@H]3C(=O)N(C)[C@@H]([C@@H](C)O)C(=O)N[C@@H](C)C(=O)N3C[C@@H](C)C[C@H]3C(=O)O[C@H]2C)cc1 [Compound 37] ({NH(4-Et-phenyl)-CO}-[Phe(3,5-F2)][aThr]P[NMeT]A[Pro(4S-Me)]; ester 2-C) | System = Sa-ClpP (Staphylococcus aureus) | pIC50 = ____
-- reply 5.15

-- ask Give Sa-ClpP (Staphylococcus aureus) pIC50 for Cc1ccc(NC(=O)N[C@@H](Cc2cc(F)cc(F)c2)C(=O)N[C@@H]2C(=O)N3CCC[C@H]3C(=O)N(C)[C@@H]([C@@H](C)O)C(=O)N[C@@H](C)C(=O)N3C[C@H](C)C[C@H]3C(=O)O[C@H]2C)cc1 [Compound 38] ({NH(4-Me-phenyl)-CO}-[Phe(3,5-F2)][aThr]P[NMeT]A[Pro(4R-Me)]; ester 2-C)
-- reply 5.19

-- ask Form field: pIC50 recorded for C[C@@H]1C[C@H]2C(=O)O[C@@H](C)[C@H](NC(=O)[C@H](Cc3cc(F)cc(F)c3)NC(=O)Nc3ccc(Cl)cc3F)C(=O)N3C[C@H](O)C[C@H]3C(=O)N3CCCC[C@H]3C(=O)N[C@@H](C)C(=O)N2C1 [Compound 329] ({NH(4-Cl-2-F-phenyl)-CO}-[Phe(3,5-F2)][aThr][Hyp][Pip]A[Pro(4R-Me)]; ester 2-C) with Sa-ClpP (Staphylococcus aureus) (enter value)
-- reply 5.14
